Just for reference, patent US10774051B2 is where these values come from.

- testedOn: human P2X7 receptor (Homo sapiens, UniProt Q99572, R270H/Y155H)
- assayComment: Evaluation of human P2X7 receptor inhibitory activity (Yo-Pro uptake, BzATP stimulation, FLIPR TETRA)
- Format: cell-based
- protocolConditions: antagonistic activity for the human P2X7 receptor; read-out: IC50
measure: IC50

1. COc1cn(Cc2cc(F)cc(Cl)c2)c(Nc2cc(-c3cscn3)ccc2C)nc1=O [Compound I-0752]    10 to 100 nM
2. COc1cn(Cc2cc(F)cc(Cl)c2)c(Nc2cc(OC(F)F)ccc2C)nc1=O [Compound I-0872]    10 to 100 nM
3. COc1cn(Cc2cc(F)cc(Cl)c2)c(Nc2cccc3c(=O)[nH]ccc23)nc1=O [Compound I-0651]    10 to 100 nM
4. Cc1ccc(OC(F)F)cc1Nc1nc(=O)c(F)cn1Cc1cc(F)cc(F)c1 [Compound I-0994]    10 to 100 nM
5. C=C1C(c2cc(Nc3nc(=O)c(F)cn3Cc3cc(F)c(F)c(F)c3)c(C)cc2F)=CC=CN1C [Compound I-1222]    < 10 nM
6. CCc1ccccc1Nc1nc(=O)c(OC)cn1Cc1ccc(F)c(F)c1 [Compound I-0674]    10 to 100 nM
7. Cc1cc(N2CCOCC2)ccc1Nc1nc(=O)ccn1Cc1cc(F)c(F)c(F)c1 [Compound I-1149]    10 to 100 nM
8. COc1ccc(Nc2nc(=O)c(Cl)cn2Cc2ccc(F)c(Cl)c2)c(C)c1 [Compound I-0843]    10 to 100 nM

-- ask Give its IC50 value. Item: Cc1ccc(OCC2CC2)cc1Nc1nc(=O)c(F)cn1Cc1cc(F)cc(F)c1 [Compound I-0997]
-- reply 10 to 100 nM

-- ask Now consider COc1cc(C)c(Nc2nc(=O)c(C)cn2Cc2cc(F)c(F)c(F)c2)cc1OC [Compound I-1153] .
-- reply < 10 nM

-- ask Record: Cc1cn(Cc2cc(F)cc(F)c2)c(Nc2ccc3[nH]ccc3c2C)nc1=O [Compound I-1164]
-- reply < 10 nM

-- ask Next compound: COc1cn(Cc2ccc(F)c(Cl)c2)c(Nc2cc(C(F)(F)F)ccc2C)cc1=O [Compound I-0956]
-- reply 100 to 500 nM

-- ask Moving on to COc1cn(Cc2cccc(F)c2)c(Nc2cccc(C)c2Cl)nc1=O [Compound I-0643]
-- reply 10 to 100 nM

-- ask Repeat for the following compound: COc1cn(Cc2ccc(F)c(Cl)c2)c(Nc2cc(C)c(Cl)cc2C)cc1=O [Compound I-0949]
-- reply 100 to 500 nM

-- ask # iterate: COc1ccc(Nc2cc(=O)c(OC)cn2Cc2ccc(F)c(Cl)c2)c(C)c1 [Compound I-0944]
-- reply 100 to 500 nM

-- ask Another compound: COc1ccc(Nc2nc(=O)c(C(N)=O)cn2Cc2cc(F)c(F)c(F)c2)c(C)c1 [Compound I-1100]
-- reply 10 to 100 nM

-- ask COc1cn(Cc2ccc(F)c(Cl)c2)c(Nc2ccc3nc(C)sc3c2C)nc1=O [Compound I-0859] ?
-- reply 10 to 100 nM
